Consider the following molecules and their measured TGI readings.
- System: SNB-19 CNS
- ASSAY COMMENT: NCI tumour cell line growth inhibition, 48 h

| MOLECULE | TESTED TARGET | TGI |
| --- | --- | --- |
| CC(=O)c1c(C)cc2cccc(OC3OC(CO)C(O)C(O)C3O)c2c1O (stereo unspecified) (tested in a mixture with another compound) | SNB-19 CNS | > 100 µM |
| O=C(O)c1cc2cc(O)ccc2[nH]1 | SNB-19 CNS | > 100 µM |
| O=C(Nc1nc(-c2ccccc2)cs1)c1cc(O)c(O)c(O)c1 | SNB-19 CNS | > 100 µM |
| O=[N+]([O-])c1ccc2nc3ccscc-3c2c1 | SNB-19 CNS | > 100 µM |
| CN(C)CCC(/C=C/c1ccccc1)=N\Nc1ccc(Cl)cc1 | SNB-19 CNS | 27.5 µM |
| C[N+]1(c2ccccc2)C=C(c2ccccc2)SC1=S (stereo unspecified) | SNB-19 CNS | > 100 µM |
